src = patent US7223759B2

System: Escherichia coli (ATCC25922) or Staphylococcus aureus (ATCC25923)
method description: Antibacterial MIC, microdilution method in Mueller-Hinton medium
Assay type: cell-based
assay context: Escherichia coli, 18 h, read-out: Potency (MIC)
observed property: MIC

-- ask Return MIC for the following compound: N[C@@H]1C[C@H](N)CN(c2nc(Nc3ccc(O)c4ncccc34)nc(N3C[C@H](N)C[C@H](N)C3)n2)C1
-- reply < 16 µg/mL

-- ask Return MIC for the following compound: Cc1ccc(C(=O)Nc2ccc(Nc3nc(N4C[C@H](N)C[C@H](N)C4)nc(N4CC[C@H](O)[C@@H]4CN)n3)cc2O)cc1
-- reply < 16 µg/mL

-- ask Return MIC for the following compound: N[C@@H]1C[C@H](N)CN(c2nc(Nc3ccc(NC(=O)c4cc(Br)ccc4O)c(O)c3)nc(N3C[C@H](N)C[C@H](N)C3)n2)C1
-- reply < 16 µg/mL

-- ask Return MIC for the following compound: N[C@@H]1C[C@H](N)CN(c2nc(Nc3ccc(C(=O)CC(=O)Nc4ccccc4)cc3)nc(N3C[C@H](N)C[C@H](N)C3)n2)C1
-- reply < 16 µg/mL

-- ask Return MIC for the following compound: N[C@@H]1C[C@H](N)CN(c2nc(Nc3ccc(NC(=O)c4ccc(F)c(F)c4O)c(O)c3)nc(N3C[C@H](N)C[C@H](N)C3)n2)C1
-- reply < 64 µg/mL

-- ask Return MIC for the following compound: COc1ccc(OC)c(NC(=O)c2ccc(Nc3nc(N4C[C@H](N)C[C@H](N)C4)nc(N4C[C@H](N)C[C@H](N)C4)n3)cc2O)c1
-- reply < 16 µg/mL

-- ask Return MIC for the following compound: Cc1cc(=O)oc2cc(Nc3nc(N4C[C@H](N)C[C@H](N)C4)nc(N4C[C@H](N)C[C@H](N)C4)n3)ccc12
-- reply < 16 µg/mL

-- ask Return MIC for the following compound: NCCN(CCN)c1nc(Nc2ccc(NC(=O)c3ccc4ccccc4c3O)cc2)nc(N2C[C@H](N)C[C@H](N)C2)n1
-- reply < 16 µg/mL

-- ask Return MIC for the following compound: NC(=O)c1ccc(NC(=O)c2ccc(Nc3nc(N4C[C@H](N)C[C@H](N)C4)nc(N4C[C@H](N)C[C@H](N)C4)n3)cc2O)cc1
-- reply > 64 µg/mL

-- ask Return MIC for the following compound: N[C@@H]1C[C@H](N)CN(c2nc(Nc3ccc(C(=O)CC(=O)Nc4ccc(Cl)cc4Cl)cc3)nc(N3C[C@H](N)C[C@H](N)C3)n2)C1
-- reply < 64 µg/mL

-- ask Return MIC for the following compound: N[C@@H]1C[C@H](N)CN(c2nc(Nc3ccc(NC(=O)c4ccc(Cl)cc4O)c(C(F)(F)F)c3)nc(N3C[C@H](N)C[C@H](N)C3)n2)C1
-- reply < 16 µg/mL

-- ask Return MIC for the following compound: N[C@@H]1C[C@H](N)CN(c2nc(Nc3ccc(NC(=O)c4ccc5cccnc5c4O)cc3)nc(N3C[C@H](N)C[C@H](N)C3)n2)C1
-- reply < 16 µg/mL

-- ask Return MIC for the following compound: N[C@@H]1C[C@H](N)CN(c2nc(Nc3ccc(NC(=O)c4ccc(Cl)cc4)c(O)c3)nc(N3CCN(CC(=O)N4CCOCC4)CC3)n2)C1
-- reply > 64 µg/mL

-- ask Return MIC for the following compound: N[C@@H]1C[C@H](N)CN(c2nc(Nc3ccc(NC(=O)c4cccnc4O)c(O)c3)nc(N3C[C@H](N)C[C@H](N)C3)n2)C1
-- reply < 16 µg/mL
